Where do the numbers come from? From patent US9422292B2.

test system: BRD4 (BD1) (Homo sapiens, UniProt O60885)
Construct: His; made in house
method: BRD4 AlphaLisa binding assay
experimental setup: BRD4 (BD1) 30 nM, biotinylated H4-tetraacetyl peptide 200 nM; read-out: BRD4 AlphaLisa
IC50 by entry:

Below, 8 compounds whose answers are already recorded.
compound: Cc1[nH]c(=O)ccc1-c1ccc2c(c1)N(c1ccc(Cl)cc1)C[C@@H](C)c1nnc(C)n1-2
assay value: 100 to 1000 nM
--
compound: Cc1nnc2n1-c1ccccc1N(c1ccc(Cl)cc1)CC2CCO (stereo not shown)
assay value: 1000 to 10000 nM
--
compound: Cc1nnc2n1-c1cc(F)ccc1N(c1ccc(Cl)cc1)CC2C (stereo not shown)
assay value: 100 to 1000 nM
--
compound: COc1ccc2c(n1)N(c1ccc(C#N)cc1)CC(C)c1nnc(C)n1-2 (stereo not shown)
assay value: > 500 nM
--
compound: Cc1nnc2n1-c1ccc(-c3cnn(C)n3)cc1N(c1ccc(Cl)cc1)C[C@H]2C
assay value: < 100 nM
--
compound: Cc1nnc2n1-c1ccc(-c3cnc(N)cn3)cc1N(c1ccc(Cl)cn1)C[C@H]2C
assay value: < 100 nM
--
compound: Cc1nnc2n1-c1ccc(-c3cnc(N)nc3)cc1N(c1ccc(Cl)cc1)C[C@@H]2C
assay value: 1000 to 10000 nM
--
compound: Cc1nnc2n1-c1ccc(-c3cn(C)nn3)cc1N(c1ccc(Cl)cc1)C[C@H]2C
assay value: < 100 nM

Here's the next entry for you.
**Query** Look up IC50 of `Cc1nnc2n1-c1ccc(-c3cnc(N)cn3)cc1N(c1ccc(Cl)cc1)C[C@H]2C` and report it.
**Result** < 100 nM

----------
System: MYC mRNA in MV4:11 (AML) cells
method: cMyc RNA quantification assay (QuantiGene) in MV4:11 cells
Assay type: cell-based
experimental setup: Homo sapiens, 4 h, QuantiGene 2.0
IC50 by entry:

Below, 3 molecules whose answers are already recorded.
molecule: Cc1nnc2n1-c1ccc(-c3cnn(C)n3)cc1N(c1ccc(S(C)(=O)=O)cc1)C[C@H]2C [Compound 73]
value kind: IC50
assay value: 100 to 1000 nM

molecule: Cc1nnc2n1-c1ccc(-c3ccc(=O)[nH]c3)cc1N(c1ccc(Cl)cc1)C[C@H]2C [Compound 61]
value kind: IC50
assay value: < 100 nM

molecule: Cc1nnc2n1-c1ccc(Br)cc1N(c1ccc(Cl)cc1)C[C@@H]2C [Compound 37]
value kind: IC50
assay value: 1000 to 10000 nM

**Query** Look up IC50 of Cc1nc(-c2ccc3c(c2)N(c2ccc(Cl)cc2)C[C@@H](C)c2nnc(C)n2-3)no1 [Compound 50] and report it.
**Result** < 100 nM

**Query** Look up IC50 of Cc1nnc2n1-c1ccc(Br)cc1N(c1ccc(Cl)cc1)C[C@H]2C [Compound 38] and report it.
**Result** 100 to 1000 nM

**Query** Look up IC50 of Cc1nnc2n1-c1ccc(-c3ccc(N)nc3)cc1N(c1ccc(Cl)cc1)CC2C (stereo not shown) [Compound 23] and report it.
**Result** < 100 nM

**Query** Look up IC50 of Cc1nnc2n1-c1ccc(-c3ccc(N)nc3)cc1N(c1ccc(N)nc1)C[C@H]2C [Compound 71] and report it.
**Result** 1000 to 10000 nM

**Query** Look up IC50 of Cc1ncn(-c2ccc3c(c2)N(c2ccc(Cl)cc2)C[C@@H](C)c2nnc(C)n2-3)n1 [Compound 66] and report it.
**Result** < 100 nM

**Query** Look up IC50 of Cc1noc(-c2ccc3c(c2)N(c2ccc(Cl)cc2)C[C@@H](C)c2nnc(C)n2-3)n1 [Compound 51] and report it.
**Result** < 100 nM

**Query** Look up IC50 of Cc1nnc2n1-c1ccc(-c3cnn(C)n3)cc1N(c1ccc(Cl)cc1)C[C@H]2C [Compound 48] and report it.
**Result** < 100 nM

----------
test system: BRD4 (BD1) (Homo sapiens)
Construct: His; made in house
method: BRD4 AlphaLisa binding assay
experimental setup: BRD4 (BD1) 30 nM, biotinylated H4-tetraacetyl peptide 200 nM; read-out: BRD4 AlphaLisa
Description: A. IC50 Measurements for Inhibitors Using BRD4 AlphaLisa Binding Assay. Specifically, in a 384 well ProxiPlate BRD4 (BD1) (30 nM final) was combined with peptide (200 nM final) in 40 mM HEPES (pH 7.0), 40 mM NaCl, 1 mM DTT, 0.01% (w/v) BSA, and 0.008% (w/v) Brij-35 either in the presence of DMSO (final 1.2% DMSO) or compound dilution series in DMSO. […] After three hours equilibration plates were read on an Envision instrument and IC50s calculated using a four parameter non-linear curve fit.
IC50 by entry:

Below, 3 molecules whose answers are already recorded.
smiles structure: Cc1nnc2n1-c1ccc(-c3cnc(N)cn3)cc1N(c1ccc(C#N)cc1)C[C@@H]2C
IC50: 100 to 1000 nM
//
smiles structure: Cc1nnc2n1-c1ccc(-c3cnn(C)c3)cc1N(c1ccc(C#N)cn1)C[C@H]2C
IC50: < 100 nM
//
smiles structure: Cc1nnc2n1-c1ccc(-c3cnn(C)n3)cc1N(c1ccc(S(C)(=O)=O)cc1)C[C@H]2C
IC50: < 100 nM

Here's the next entry for you.
**Query** Look up IC50 of `Cc1nnc2n1-c1ccc(-n3cncn3)cc1N(c1ccc(Cl)cc1)C[C@H]2C` and report it.
**Result** < 100 nM
